# target.system: cloned human dopamine D3 receptors (Homo sapiens)
# Construct: expressed in transfected cells; membrane homogenate
# test: [N-Methyl-3H]Spiroperidol binding to cloned human dopamine D3 receptors
# experimental.context: read-out: D3 Ki
# Procedure: [N-Methyl-^3H]Spiroperidol Binding to Cloned Human Dopamine D3 Receptors […] A 200 μl sample membrane homogenate is added to 200 μl of 1% SDS, vortexed and allowed to stand for 5 min. Aliquots (25, 50 and 100 μl) of this mixture are assayed in duplicate following the standard Bio-Rad DC protein assay protocol (kit catalog number 500-0112) and using reagent S. Absorbance readings are made at 750 nm (note: the most accurate protein OD readings are between 0.1-0.5 units). […]
Attribute: Ki
reported.metric: Ki (nM)

INSERT INTO results (compound, target_system, observed_measurement) VALUES
  ('CC[C@H]1CC[C@H](NC(=O)[C@@H]2C[C@H]2CN2CCN(c3nn(C)c4ccc(OC)cc34)CC2)CC1 [832747ES]', 'cloned human dopamine D3 receptors (Homo sapiens)', 1.05),
  ('O=C(NCCC(c1ccccc1)c1ccccc1)C1CC1CN1CCC(c2noc3ccsc23)CC1 (racemic)', 'cloned human dopamine D3 receptors (Homo sapiens)', 8.06),
  ('CC1CCC(NC(=O)C2CC2CN2CCN(c3nn(-c4ccccc4F)c4ccccc34)CC2)CC1 (racemic)', 'cloned human dopamine D3 receptors (Homo sapiens)', 5.42),
  ('O=C(NCCc1ccc(F)cc1)C1CC1CN1CCC(c2noc3ccsc23)CC1 (racemic)', 'cloned human dopamine D3 receptors (Homo sapiens)', 13.4);

----------
# target.system: cloned human alpha-1A adrenergic receptors (α1a) (Homo sapiens)
# Construct: expressed in transfected cells; membranes
# Sequence (P35348 1-466): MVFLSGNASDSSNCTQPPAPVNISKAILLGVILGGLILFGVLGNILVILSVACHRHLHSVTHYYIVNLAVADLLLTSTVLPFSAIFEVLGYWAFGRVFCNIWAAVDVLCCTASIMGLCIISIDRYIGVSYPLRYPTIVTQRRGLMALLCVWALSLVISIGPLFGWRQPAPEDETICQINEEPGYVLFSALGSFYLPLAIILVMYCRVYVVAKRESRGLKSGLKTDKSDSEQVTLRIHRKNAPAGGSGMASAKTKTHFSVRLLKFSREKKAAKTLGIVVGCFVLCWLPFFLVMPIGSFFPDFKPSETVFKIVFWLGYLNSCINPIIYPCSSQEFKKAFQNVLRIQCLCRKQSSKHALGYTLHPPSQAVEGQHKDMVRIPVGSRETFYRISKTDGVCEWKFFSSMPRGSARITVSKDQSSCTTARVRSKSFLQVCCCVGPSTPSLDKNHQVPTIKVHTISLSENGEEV
# test: [3H]Prazosin binding to cloned human alpha-1A adrenergic receptors expressed in CHO cells
# experimental.context: read-out: halpha1Ki (nM) h = human
reported.metric: Ki (nM)

INSERT INTO assay_data (compound, target_system, reported_metric, observed_measurement) VALUES
  ('CN(C)C1CCN(C(=O)CCCN2CCN(c3csc4cc(C(F)(F)F)ccc34)CC2)C1 (centres unmarked) [compound 826823]', 'cloned human alpha-1A adrenergic receptors (α1a) (Homo sapiens)', 'Ki', 148),
  ('O=C(CCCN1CCN(c2csc3cc(C(F)(F)F)ccc23)CC1)N(CCO)C1CCCCC1 [compound 826810]', 'cloned human alpha-1A adrenergic receptors (α1a) (Homo sapiens)', 'Ki', 200),
  ('CC1CC(C)CN(C(=O)CCCN2CCN(c3csc4cc(F)ccc34)CC2)C1 (centres unmarked) [compound 826858]', 'cloned human alpha-1A adrenergic receptors (α1a) (Homo sapiens)', 'Ki', 9.42),
  ('CC1CCCCN1C(=O)CCCN1CCN(c2csc3cc(C(F)(F)F)ccc23)CC1 (centres unmarked) [compound 826813]', 'cloned human alpha-1A adrenergic receptors (α1a) (Homo sapiens)', 'Ki', 57),
  ('O=C(CCCN1CCN(c2csc3cc(F)ccc23)CC1)N1CCCC1 [compound 826859]', 'cloned human alpha-1A adrenergic receptors (α1a) (Homo sapiens)', 'Ki', 4),
  ('O=C(CCCN1CCN(c2csc3cc(F)ccc23)CC1)N(CCO)C1CCCCC1 [compound 826850]', 'cloned human alpha-1A adrenergic receptors (α1a) (Homo sapiens)', 'Ki', 28.4),
  ('CC[C@H]1CC[C@H](NC(=O)CCCN2CCN(c3csc4cc(F)ccc34)CC2)CC1 [compound 826846]', 'cloned human alpha-1A adrenergic receptors (α1a) (Homo sapiens)', 'Ki', 93.9),
  ('O=C(CCCN1CCN(c2csc3cc(C(F)(F)F)ccc23)CC1)NC1CCCCC1 [compound 826821]', 'cloned human alpha-1A adrenergic receptors (α1a) (Homo sapiens)', 'Ki', 1280);

----------
# target.system: cloned human dopamine D3 receptors (Homo sapiens)
# Construct: expressed in transfected cells; membrane homogenate
# test: [N-Methyl-3H]Spiroperidol binding to cloned human dopamine D3 receptors
# experimental.context: read-out: D3 Ki
pKi: −log10 of the molar value.
Attribute: pKi
reported.metric: pKi

INSERT INTO measurements (compound, target_system, observed_measurement) VALUES
  ('CCC1CCC(NC(=O)C2CC2CN2CCN(c3ccc(OC)cc3)CC2C)CC1 (racemic)', 'cloned human dopamine D3 receptors (Homo sapiens)', 7.22),
  ('CC1CCN(CCCNC(=O)[C@@H]2C[C@H]2CN2CCN(c3nn(-c4ccc(OC(F)(F)F)cc4)c4ccsc34)CC2)CC1', 'cloned human dopamine D3 receptors (Homo sapiens)', 7.15),
  ('O=C(NCCCN1CCCCC1)[C@@H]1C[C@H]1CN1CCC(c2noc3c(C(F)(F)F)cccc23)CC1', 'cloned human dopamine D3 receptors (Homo sapiens)', 6.84),
  ('O=C(CCCN1CCN(c2noc3ccsc23)CC1)N1CCC(n2ccnc2)CC1', 'cloned human dopamine D3 receptors (Homo sapiens)', 6.52);

----------
# target.system: cloned human dopamine D3 receptors (Homo sapiens, UniProt P35462)
# Construct: expressed in transfected cells; membrane homogenate
# Sequence (P35462 whole entry): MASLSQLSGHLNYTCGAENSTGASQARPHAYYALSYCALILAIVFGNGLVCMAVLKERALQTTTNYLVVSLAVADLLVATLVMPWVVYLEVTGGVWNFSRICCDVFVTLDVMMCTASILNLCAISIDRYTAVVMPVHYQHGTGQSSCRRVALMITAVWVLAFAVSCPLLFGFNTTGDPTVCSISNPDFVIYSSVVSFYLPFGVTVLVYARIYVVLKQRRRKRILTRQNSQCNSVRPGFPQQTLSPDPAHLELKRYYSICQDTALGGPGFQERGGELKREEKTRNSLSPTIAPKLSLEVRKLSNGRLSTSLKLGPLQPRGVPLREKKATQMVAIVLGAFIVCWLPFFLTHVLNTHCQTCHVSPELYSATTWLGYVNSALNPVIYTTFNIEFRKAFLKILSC
# test: [N-Methyl-3H]Spiroperidol binding to cloned human dopamine D3 receptors
# experimental.context: read-out: D3 Ki
pKi: −log10 of the molar value.
reported.metric: pKi

INSERT INTO results (molecule, reported_metric, observed_measurement) VALUES
  ('Cn1nc(N2CCN(CCCC(=O)N[C@H]3CC[C@H](C)CC3)CC2)c2sccc21', 'pKi', 6.92),
  ('CCN(CC)C(=O)C1CCN(C(=O)C2CC2CN2CCC(c3noc4ccsc34)CC2)CC1 (racemic)', 'pKi', 6.65),
  ('O=C(NC1CCN(Cc2ccc(F)cc2F)CC1)[C@@H]1C[C@H]1CN1CCC(c2noc3ccsc23)CC1', 'pKi', 8.80),
  ('O=C(NCCc1c[nH]c2cc(F)ccc12)[C@@H]1C[C@H]1CN1CCC(c2noc3ccsc23)CC1', 'pKi', 8.50);

----------
# target.system: cloned human dopamine D3 receptors (Homo sapiens, UniProt P35462)
# Construct: expressed in transfected cells; membrane homogenate
# test: [N-Methyl-3H]Spiroperidol binding to cloned human dopamine D3 receptors
# experimental.context: read-out: D3 Ki
// assign yes if Ki falls strictly below 0.02 µM, else no (ties count as no)

INSERT INTO measurements (molecule, target_system, group_label) VALUES
  ('O=C(C1CC1CN1CCC(c2noc3ccsc23)CC1)N1CCC(c2nc3ccccc3s2)CC1 (racemic)', 'cloned human dopamine D3 receptors (Homo sapiens, UniProt P35462)', 'no'),
  ('CN1CCN(CCCNC(=O)C2CC2CN2CCC(c3noc4ccsc34)CC2)CC1 (racemic)', 'cloned human dopamine D3 receptors (Homo sapiens, UniProt P35462)', 'no'),
  ('COc1cccc2c(C3CCN(C[C@@H]4C[C@H]4C(=O)NCCCc4cccnc4)CC3)noc12', 'cloned human dopamine D3 receptors (Homo sapiens, UniProt P35462)', 'no'),
  ('COc1ccc2c(c1)c(N1CCN(C[C@@H]3C[C@H]3C(=O)NC3CCN(Cc4ccc(F)c(F)c4)CC3)CC1)nn2C', 'cloned human dopamine D3 receptors (Homo sapiens, UniProt P35462)', 'yes'),
  ('Cc1cccc(CN2CCC(NC(=O)[C@@H]3C[C@H]3CN3CCC(c4noc5ccsc45)CC3)CC2)c1', 'cloned human dopamine D3 receptors (Homo sapiens, UniProt P35462)', 'yes'),
  ('C[C@H]1CC[C@H](NC(=O)[C@H]2C[C@@H]2CN2CCC(c3cc4ccccc4s3)CC2)CC1', 'cloned human dopamine D3 receptors (Homo sapiens, UniProt P35462)', 'no'),
  ('O=C([C@@H]1C[C@H]1CN1CCC(c2noc3ccsc23)CC1)N1CCN(CCCc2ccccc2)CC1', 'cloned human dopamine D3 receptors (Homo sapiens, UniProt P35462)', 'yes');

----------
# target.system: cloned human dopamine D3 receptors (Homo sapiens, UniProt P35462)
# Construct: expressed in transfected cells; membrane homogenate
# test: [N-Methyl-3H]Spiroperidol binding to cloned human dopamine D3 receptors
# experimental.context: read-out: D3 Ki
reported.metric: Ki (nM)

INSERT INTO assay_data (compound, target_system, observed_measurement) VALUES
  ('O=C([C@@H]1C[C@H]1CN1CCC(c2noc3ccsc23)CC1)N1CCC(n2c(=O)[nH]c3ccccc32)CC1', 'cloned human dopamine D3 receptors (Homo sapiens, UniProt P35462)', 67.7),
  ('O=C(NC1CCN(Cc2ccc(F)c(F)c2)CC1)[C@@H]1C[C@H]1CN1CCN(c2csc3cc(C(F)(F)F)ccc23)CC1', 'cloned human dopamine D3 receptors (Homo sapiens, UniProt P35462)', 2.17),
  ('C[C@H]1CC[C@H](NC(=O)[C@@H]2C[C@H]2CN2CCC(c3nn(-c4ccc(F)cc4)c4cc(C(F)(F)F)ccc34)CC2)CC1', 'cloned human dopamine D3 receptors (Homo sapiens, UniProt P35462)', 134),
  ('O=C(NCc1cccc(Oc2ccccc2)c1)C1CC1CN1CCC(c2noc3ccsc23)CC1 (racemic)', 'cloned human dopamine D3 receptors (Homo sapiens, UniProt P35462)', 81.3),
  ('O=C(NCCCn1cnc(Cl)c1Cl)[C@@H]1C[C@H]1CN1CCC(c2noc3ccsc23)CC1', 'cloned human dopamine D3 receptors (Homo sapiens, UniProt P35462)', 1.76),
  ('COc1c(F)ccc2c(C3CCN(C[C@H]4C[C@@H]4C(=O)N[C@H]4CC[C@H](C)CC4)CC3)noc12', 'cloned human dopamine D3 receptors (Homo sapiens, UniProt P35462)', 17.1),
  ('Cn1nc(N2CCN(C[C@@H]3C[C@H]3C(=O)NC3CCN(CC4CCCCC4)CC3)CC2)c2sccc21', 'cloned human dopamine D3 receptors (Homo sapiens, UniProt P35462)', 2.41),
  ('CC1CCCCN1CCCNC(=O)[C@@H]1C[C@H]1CN1CCN(c2csc3cc(C(F)(F)F)ccc23)CC1 (mixture of isomers)', 'cloned human dopamine D3 receptors (Homo sapiens, UniProt P35462)', 25.8),
  ('CC(C)N1CCN(C(=O)[C@@H]2C[C@H]2CN2CCN(c3csc4cc(C(F)(F)F)ccc34)CC2)CC1', 'cloned human dopamine D3 receptors (Homo sapiens, UniProt P35462)', 18.2),
  ('O=C(NC1CCN(Cc2ccc(Cl)c(Cl)c2)CC1)C1CC1CN1CCC(c2noc3ccsc23)CC1 (racemic)', 'cloned human dopamine D3 receptors (Homo sapiens, UniProt P35462)', 7.46),
  ('Cc1ccc2c(c1)c(C1CCN(C[C@@H]3C[C@H]3C(=O)NCCCn3ccnc3)CC1)nn2C', 'cloned human dopamine D3 receptors (Homo sapiens, UniProt P35462)', 6.75),
  ('O=C([C@@H]1C[C@H]1CN1CCC(c2noc3ccsc23)CC1)N1CCN(c2ccc(F)cc2)CC1', 'cloned human dopamine D3 receptors (Homo sapiens, UniProt P35462)', 80.3),
  ('Cc1ccc2c(c1)c(C1CCN(C[C@@H]3C[C@H]3C(=O)N3CCC[C@@H](Cn4ccnc4)C3)CC1)nn2C', 'cloned human dopamine D3 receptors (Homo sapiens, UniProt P35462)', 1.03),
  ('COc1cccc(CCNC(=O)C2CC2CN2CCC(c3noc4ccsc34)CC2)c1 (racemic)', 'cloned human dopamine D3 receptors (Homo sapiens, UniProt P35462)', 9.89),
  ('O=C(NCCc1cccnc1)C1CC1CN1CCC(c2noc3ccsc23)CC1 (racemic)', 'cloned human dopamine D3 receptors (Homo sapiens, UniProt P35462)', 6.21),
  ('O=C(N1CCCC1)C1(CCN2CCC(c3noc4ccsc34)CC2)CC1', 'cloned human dopamine D3 receptors (Homo sapiens, UniProt P35462)', 207),
  ('CC(C)(C)OC(=O)N1CCC(CNC(=O)[C@@H]2C[C@H]2CN2CCC(c3nn(-c4ccccc4)c4ccsc34)CC2)CC1', 'cloned human dopamine D3 receptors (Homo sapiens, UniProt P35462)', 28.3),
  ('CC(C)(C)OC(=O)N1CCC(CNC(=O)[C@@H]2C[C@H]2CN2CCC(c3nn(CC(F)(F)F)c4ccsc34)CC2)CC1', 'cloned human dopamine D3 receptors (Homo sapiens, UniProt P35462)', 66),
  ('O=C(NCCCc1ccccc1)[C@@H]1C[C@H]1CN1CCN(c2csc3cc(C(F)(F)F)ccc23)CC1', 'cloned human dopamine D3 receptors (Homo sapiens, UniProt P35462)', 17.8),
  ('O=C([C@@H]1C[C@H]1CN1CCC(c2nsc3cc(Br)ccc23)CC1)N1CCC(Cn2ccnc2)CC1', 'cloned human dopamine D3 receptors (Homo sapiens, UniProt P35462)', 345),
  ('CN1CCN(CCCNC(=O)[C@@H]2C[C@H]2CN2CCC(c3nn(C)c4c(C(F)(F)F)cccc34)CC2)CC1', 'cloned human dopamine D3 receptors (Homo sapiens, UniProt P35462)', 39),
  ('O=C(C1CC1CN1CCC(c2noc3ccsc23)CC1)N1CCN(Cc2ccc(Cl)cc2)CC1 (racemic)', 'cloned human dopamine D3 receptors (Homo sapiens, UniProt P35462)', 0.315),
  ('O=C([C@@H]1C[C@H]1CN1CCC(c2noc3ccc(C(F)(F)F)cc23)CC1)N1CCCC(Cn2ccnc2)C1 (mixture of isomers)', 'cloned human dopamine D3 receptors (Homo sapiens, UniProt P35462)', 0.4),
  ('O=C(NC1CCN(Cc2ccc(Cl)cc2)CC1)[C@@H]1C[C@H]1CN1CCC(c2noc3ccsc23)CC1', 'cloned human dopamine D3 receptors (Homo sapiens, UniProt P35462)', 1.67),
  ('CC(=O)N1CCC(CNC(=O)[C@@H]2C[C@H]2CN2CCN(c3csc4cc(C(F)(F)F)ccc34)CC2)CC1', 'cloned human dopamine D3 receptors (Homo sapiens, UniProt P35462)', 692),
  ('O=C([C@@H]1C[C@H]1CN1CCN(c2csc3cc(C(F)(F)F)ccc23)CC1)N1CCC[C@@H](Cn2ccnc2)C1', 'cloned human dopamine D3 receptors (Homo sapiens, UniProt P35462)', 0.9),
  ('COc1cccc2c(C3CCN(C[C@@H]4C[C@H]4C(=O)N4CCC[C@@H](Cn5ccnc5)C4)CC3)noc12', 'cloned human dopamine D3 receptors (Homo sapiens, UniProt P35462)', 0.541),
  ('O=C(NCCc1ccc(F)cc1)[C@@H]1C[C@H]1CN1CCC(c2noc3ccsc23)CC1', 'cloned human dopamine D3 receptors (Homo sapiens, UniProt P35462)', 4.22);
